Hello, the source for this data is patent US11395857B2, in case you need it.

Test Description: Biodistribution of 177Lu-labeled αMSH analogues in mice bearing B16F10 mouse melanoma
Format: in vivo, C57BL/6J mice
Measurement Context: mouse, heart, iv, total radioactivity; 24 h p.i., C57BL/6J mice, B16F10 melanoma; read-out: Biodistribution, Heart
For each record, write down the corresponding tissue uptake at 24 h.
Give the value, in units of %ID/g, as a plain number.

// returns reported tissue uptake at 24 h for input CCCC[C@H](NC(=O)CN1CCC(NC(=O)[C@H](CCCCNC(=O)CN2CCN(CC(=O)O)CCN(CC(=O)O)CCN(CC(=O)O)CC2)NC(=O)[C@H](CCC(=O)O)NC(=O)CCCc2ccc(I)cc2)CC1)C(=O)N[C@H]1CC(=O)NCCCC[C@@H](C(N)=O)NC(=O)[C@H](Cc2c[nH]c3ccccc23)NC(=O)[C@H](CCCNC(=N)N)NC(=O)[C@@H](Cc2ccccc2)NC(=O)[C@H](Cc2c[nH]cn2)NC1=O [^177Lu-labeled CCZ01082, metal not drawn]
0.18

// returns reported tissue uptake at 24 h for input CCCC[C@H](NC(=O)CN1CCC(NC(=O)CN2CCN(CC(=O)O)CCN(CC(=O)O)CCN(CC(=O)O)CC2)CC1)C(=O)N[C@H]1CC(=O)NCCCC[C@@H](C(N)=O)N(C)C(=O)[C@H](Cc2c[nH]c3ccccc23)N(C)C(=O)[C@H](CCCNC(=N)N)N(C)C(=O)[C@@H](Cc2ccccc2)NC(=O)[C@H](Cc2c[nH]cn2)N(C)C1=O [^177Lu-labeled CCZ01099, metal not drawn]
0.03

// returns reported tissue uptake at 24 h for input CCCC[C@H](NC(=O)CN1CCC(NC(=O)CN2CCN(CC(=O)O)CCN(CC(=O)O)CCN(CC(=O)O)CC2)CC1)C(=O)N[C@H]1CC(=O)NCCCC[C@@H](C(N)=O)N(C)C(=O)[C@H](Cc2c[nH]c3ccccc23)NC(=O)[C@H](CCCNC(=N)N)N(C)C(=O)[C@@H](Cc2ccccc2)NC(=O)[C@H](Cc2c[nH]cn2)NC1=O [^177Lu-labeled CCZ01106, metal not drawn]
0.02

// returns reported tissue uptake at 24 h for input CCCC[C@H](NC(=O)CN1CCC(NC(=O)[C@H](CCCCNC(=O)CN2CCN(CC(=O)O)CCN(CC(=O)O)CCN(CC(=O)O)CC2)NC(=O)[C@H](CCC(=O)O)NC(=O)CCCc2ccc(I)cc2)CC1)C(=O)N[C@H]1CC(=O)NCCCC[C@@H](C(N)=O)N(C)C(=O)[C@H](Cc2c[nH]c3ccccc23)N(C)C(=O)[C@H](CCCNC(=N)N)N(C)C(=O)[C@@H](Cc2ccccc2)NC(=O)[C@H](Cc2c[nH]cn2)N(C)C1=O [^177Lu-labeled CCZ01088, metal not drawn]
0.13

* * *

For each record, write down the corresponding tissue uptake at 1 h.
Test Description: Biodistribution of 177Lu-labeled αMSH analogues in mice bearing B16F10 mouse melanoma
Type: in vivo, C57BL/6J mice
Measurement Context: mouse, brain, iv, total radioactivity; 1 h p.i., C57BL/6J mice, B16F10 melanoma; read-out: Biodistribution, Brain
Give the value, in units of %ID/g, as a plain number.

// returns reported tissue uptake at 1 h for input CCCC[C@H](NC(=O)CN1CCC(NC(=O)CN2CCN(CC(=O)O)CCN(CC(=O)O)CCN(CC(=O)O)CC2)CC1)C(=O)N[C@H]1CC(=O)NCCCC[C@@H](C(N)=O)N(C)C(=O)[C@H](Cc2c[nH]c3ccccc23)N(C)C(=O)[C@H](CCCNC(=N)N)N(C)C(=O)[C@@H](Cc2ccccc2)NC(=O)[C@H](Cc2c[nH]cn2)N(C)C1=O [^177Lu-labeled CCZ01099, metal not drawn]
0.02

// returns reported tissue uptake at 1 h for input CCCC[C@H](NC(=O)CN1CCC(NC(=O)[C@H](CCCCNC(=O)CN2CCN(CC(=O)O)CCN(CC(=O)O)CCN(CC(=O)O)CC2)NC(=O)[C@H](CCC(=O)O)NC(=O)CCCc2ccc(I)cc2)CC1)C(=O)N[C@H]1CC(=O)NCCCC[C@@H](C(N)=O)N(C)C(=O)[C@H](Cc2c[nH]c3ccccc23)N(C)C(=O)[C@H](CCCNC(=N)N)N(C)C(=O)[C@@H](Cc2ccccc2)NC(=O)[C@H](Cc2c[nH]cn2)N(C)C1=O [^177Lu-labeled CCZ01088, metal not drawn]
0.13

// returns reported tissue uptake at 1 h for input CCCC[C@H](NC(=O)CN1CCC(NC(=O)CN2CCN(CC(=O)O)CCN(CC(=O)O)CCN(CC(=O)O)CC2)CC1)C(=O)N[C@H]1CC(=O)NCCCC[C@@H](C(N)=O)N(C)C(=O)[C@H](Cc2c[nH]c3ccccc23)NC(=O)[C@H](CCCNC(=N)N)N(C)C(=O)[C@@H](Cc2ccccc2)NC(=O)[C@H](Cc2c[nH]cn2)NC1=O [^177Lu-labeled CCZ01106, metal not drawn]
0.02

// returns reported tissue uptake at 1 h for input CCCC[C@H](NC(=O)CN1CCC(NC(=O)[C@H](CCCCNC(=O)CN2CCN(CC(=O)O)CCN(CC(=O)O)CCN(CC(=O)O)CC2)NC(=O)[C@H](CCC(=O)O)NC(=O)CCCc2ccc(I)cc2)CC1)C(=O)N[C@H]1CC(=O)NCCCC[C@@H](C(N)=O)N(C)C(=O)[C@H](Cc2c[nH]c3ccccc23)NC(=O)[C@H](CCCNC(=N)N)N(C)C(=O)[C@@H](Cc2ccccc2)NC(=O)[C@H](Cc2c[nH]cn2)NC1=O [^177Lu-labeled CCZ01118, metal not drawn]
0.13

// returns reported tissue uptake at 1 h for input CCCC[C@H](NC(=O)CN1CCC(NC(=O)[C@H](CCCCNC(=O)CN2CCN(CC(=O)O)CCN(CC(=O)O)CCN(CC(=O)O)CC2)NC(=O)[C@H](CCC(=O)O)NC(=O)CCCc2ccc(I)cc2)CC1)C(=O)N[C@H]1CC(=O)NCCCC[C@@H](C(N)=O)NC(=O)[C@H](Cc2c[nH]c3ccccc23)NC(=O)[C@H](CCCNC(=N)N)NC(=O)[C@@H](Cc2ccccc2)NC(=O)[C@H](Cc2c[nH]cn2)NC1=O [^177Lu-labeled CCZ01082, metal not drawn]
0.13

* * *

Test Description: in vivo
Measurement Context: male, NRG (NOD.Cg-Rag1tm1Mom Il2rgtm1Wjl/SzJ), mouse, total radioactivity, Tumour/blood
Reported Endpoint: tissue to tissue ratio at 24 h
I'd appreciate a reply containing only the number, no unit.

// returns reported tissue to tissue ratio at 24 h for input CCCC[C@H](NC(=O)CN1CCC(NC(=O)[C@H](CCCCNC(=O)CN2CCN(CC(=O)O)CCN(CC(=O)O)CCN(CC(=O)O)CC2)NC(=O)CNC(=O)CCCc2ccc(-c3ccc(C)cc3)cc2)CC1)C(=O)N[C@H]1CC(=O)NCCCC[C@@H](C(N)=O)N(C)C(=O)[C@H](Cc2c[nH]c3ccccc23)NC(=O)[C@H](CCCNC(=N)N)N(C)C(=O)[C@@H](Cc2ccccc2)NC(=O)[C@H](Cc2c[nH]cn2)NC1=O [^177Lu-labeled CCZ01158, metal not drawn]
62.8

* * *

Test Description: Biodistribution of 68Ga-labeled peptide in mice bearing B16F10 mouse melanoma
Type: in vivo, C57BL/6J mice
Measurement Context: adrenal glands, iv, total radioactivity, 1 h p.i. unblocked, C57BL/6J mice, B16F10 melanoma, read-out: Biodistribution, Adrenal glands
Reported Endpoint: tissue uptake at 1 h (%ID/g)
Give the value, in units of %ID/g, as a plain number.

// returns reported tissue uptake at 1 h for input CCCC[C@H](NC(=O)CN1CCC(NC(=O)CN2CCN(CC(=O)O)CCN(CC(=O)O)CCN(CC(=O)O)CC2)CC1)C(=O)N[C@H]1CC(=O)NCCCC[C@@H](C(N)=O)N(C)C(=O)[C@H](Cc2c[nH]c3ccccc23)N(C)C(=O)[C@H](CCCNC(=N)N)N(C)C(=O)[C@@H](Cc2ccccc2)NC(=O)[C@H](Cc2c[nH]cn2)N(C)C1=O [^68Ga-labeled CCZ01099, metal not drawn]
0.71

* * *

Test Description: Biodistribution of 177Lu-labeled αMSH analogues in mice bearing B16F10 mouse melanoma
Type: in vivo, C57BL/6J mice
Measurement Context: mouse, adrenal glands, iv, total radioactivity; 24 h p.i., C57BL/6J mice, B16F10 melanoma; read-out: Biodistribution, Adrenal glands
Reported Endpoint: tissue uptake at 24 h
State the value with its unit after it.

// returns reported tissue uptake at 24 h for input CCCC[C@H](NC(=O)CN1CCC(NC(=O)CN2CCN(CC(=O)O)CCN(CC(=O)O)CCN(CC(=O)O)CC2)CC1)C(=O)N[C@H]1CC(=O)NCCCC[C@@H](C(N)=O)N(C)C(=O)[C@H](Cc2c[nH]c3ccccc23)N(C)C(=O)[C@H](CCCNC(=N)N)N(C)C(=O)[C@@H](Cc2ccccc2)NC(=O)[C@H](Cc2c[nH]cn2)N(C)C1=O [^177Lu-labeled CCZ01099, metal not drawn]
0.1 %ID/g
